Where these numbers come from: PubChem BioAssay (NCATS)

- MEASUREMENT_DESCRIPTION: P-glycoprotein substrates identified in KB-3-1 adenocarcinoma cell line, qHTS therapeutic library screen (AID 1346986); also: nearly all actives have a fitted effect of over 60% in size
- MEASUREMENT_SETUP: KB-3-1 parental cells viability, CellTiter-Glo, 72 h; series mostly up to 44.5 µM
Records with an inconclusive call do not appear. Calls of active or inactive are those of the source. Calls follow the shape of the dose curve; as a rule, active = well fitted inhibition curve with a large enough effect; inconclusive = small, poorly fitted or top-dose-only effect; inactive = no such curve, though single readings can be large or run the other way.
Please state which outcome applies, choosing from T for active, F for inactive

Here's what some known entries look like.
1. Oc1ccc(-c2nc(-c3ccc(F)cc3)c(-c3ccncc3)[nH]2)cc1 ... F
2. COc1cc(C(C)=O)ccc1OCCCN1CCC(c2noc3cc(F)ccc23)CC1 ... F
3. Oc1ccc2ccccc2c1SSc1c(O)ccc2ccccc12 ... F
4. CN(C)CCc1c[nH]c2ccc(Cn3cncn3)cc12 ... F
5. CN(C)C(=O)[C@H](O)[C@H](Cc1ccccc1)NC(=O)c1cc2cc(Cl)ccc2[nH]1 ... F

Next compound, please.
Each compound tested received a call. Report the one for Cc1cc(C2CCCCC2)n(O)c(=O)c1 .
T

====

- Tested on: C33A
- MEASUREMENT_DESCRIPTION: Primary qHTS to identify gynecologic anti-cancer compounds using libraries of approved drugs and bioactive compounds (AID 1345084); also: nearly all actives have a fitted effect of over 55% in size
- MEASUREMENT_SETUP: Gynecologic cancer cell panel viability, ATPlite luminescence, 48 h; series mostly up to 57.5 µM
Results filed as inconclusive are left out. Active and inactive are the calls of the source. Calls follow the shape of the dose curve; as a rule, active = well fitted cell-killing curve with a large enough effect; inconclusive = small, poorly fitted or top-dose-only effect, or effect the other way; inactive = flat fitted curve, though single readings scatter.
Field 'call' accepts active, inactive

1. CC1(C)CCC(C)(C)c2cc(NC(=O)c3ccc(C(=O)O)cc3)ccc21 ... inactive

What did the test return for Oc1ccc(OCc2ccccc2)cc1 ?
inactive

Each molecule tested received a call. Report the one for CCC[C@@H]1C[C@@H](C(=O)N[C@@H]([C@H]2O[C@H](SC)[C@H](O)[C@@H](O)[C@H]2O)[C@@H](C)O)N(C)C1 .
inactive

Look up the recorded call for COc1ccc(C2(C#N)CCC(C(=O)O)CC2)cc1OC1CCCC1 (centres undefined) in this test.
inactive

Assay outcome for CCc1nc(N)nc(N)c1-c1ccc(Cl)cc1 : what was it?
active

====

- MEASUREMENT_DESCRIPTION: Quantitative High-Throughput drug screen in 47 multiple myeloma cell lines against the NCATS MIPE library collection: U266_ATCC cell viability assay (AID 1919864); also: nearly all actives have a fitted effect of over 35% in size
- MEASUREMENT_SETUP: U266 myeloma viability, CellTiter-Glo ATP luminescence, 48 h; series mostly up to 45.8 µM
Inconclusive results are not listed. The source made the active and inactive calls. The call rests on the fitted dose curve; in most records, active means well fitted cell-killing curve with a large enough effect; inconclusive means small, poorly fitted or top-dose-only effect, or effect the other way; inactive means no such curve, though single readings can be large or run the other way.
Assign a class; possible classes are active, inactive

Hey, what did the test say about O=c1ccc2ccc(O)c(O)c2o1 ?
active

Field: outcome | Entry: CN(c1nccc(=O)[nH]1)C1CCN(c2nc3ccccc3n2Cc2ccc(F)cc2)CC1
active

Can you look up the reported call for Nc1cc(C(Cl)=C(Cl)Cl)c(S(N)(=O)=O)cc1S(N)(=O)=O for me?
inactive

Just curious, what result did COc1c(O)cc2c(c1O)[C@@H]1O[C@H](CO)[C@@H](O)[C@H](O)[C@H]1OC2=O get here?
inactive

Fill in: this test's call for Cc1nc(-c2ccc(OCC(C)C)c(C#N)c2)sc1C(=O)O is ___
inactive

Which result was noted for this compound in the test: NNc1nncc2ccccc12
inactive

====

- Tested on: AA1029
- MEASUREMENT_DESCRIPTION: qHTS profiling for inhibitors of Plasmodium falciparum proliferation (AID 504749); also: nearly all actives have a fitted effect of over 60% in size
- MEASUREMENT_SETUP: P. falciparum in erythrocytes, SYBR Green DNA, 72 h; series mostly up to 28.7 µM
Inconclusive results are not listed. The source made the active and inactive calls. The call rests on the fitted dose curve; in most records, active means well fitted inhibition curve with a large enough effect; inconclusive means small, poorly fitted or top-dose-only effect; inactive means flat fitted curve, though single readings scatter.
// allowed return values: active, inactive

Some solved entries appear below for comparison.
1) O=C1c2ccccc2-c2n[nH]c3cccc1c23 ... inactive
2) O=P(O)(O)C(O)(Cn1ccnc1)P(=O)(O)O ... inactive

Called result for CNC[C@@H](O)[C@@H](O)[C@H](O)[C@H](O)CO
inactive

I'd appreciate the recorded outcome for Nc1cccc2c1CN(C1CCC(=O)NC1=O)C2=O (centres undefined) from this test.
inactive
